experimentalProtocol: qHTS assay for identifying genotoxic compounds that show differential cytotoxicity against isogenic chicken DT40 cell lines with known DNA damage response pathways - Rad54/Ku70 mutant cell line (AID 743015); further: nearly all actives have a fitted effect of over 60% in size
conditionDetails: DT40 Rad54/Ku70 mutant viability, CellTiter-Glo, 40 h; series mostly up to 66.8 µM
Inconclusive results are not listed. Active and inactive are the calls of the source. The call rests on the fitted dose curve; in most records, active means well fitted cell-killing curve with a large enough effect in the repeat runs; inconclusive means weak or mixed curves; inactive means no such curve, though single readings can be large or run the other way.
Outcome codes: active, inactive

{"columns": ["compound", "labelClass"],
 "data": [
  ["CN1c2cc(O)c(N=NC(N)=O)cc2CC1S(=O)(=O)O (stereo not given)", "inactive"],
  ["CS(=O)(=O)OCC(O)C(O)COS(C)(=O)=O (stereo not given)", "active"],
  ["CC(/C=C/C=C(\\C)C(=O)O[C@@H]1O[C@H](CO[C@@H]2O[C@H](CO)[C@@H](O)[C@H](O)[C@H]2O)[C@@H](O)[C@H](O)[C@H]1O)=C\\C=C\\C=C(C)\\C=C\\C=C(/C)C(=O)O[C@@H]1O[C@H](CO[C@@H]2O[C@H](CO)[C@@H](O)[C@H](O)[C@H]2O)[C@@H](O)[C@H](O)[C@H]1O", "inactive"],
  ["CO[C@H]1C[C@H](O[C@@H]2/C(C)=C/C[C@@H]3C[C@@H](C[C@]4(CC[C@H](C)[C@@H](C5CCCCC5)O4)O3)OC(=O)[C@@H]3C=C(C)/C(=N/O)[C@H]4OC/C(=C\\C=C\\[C@@H]2C)[C@]43O)O[C@@H](C)[C@@H]1O", "inactive"],
  ["C[C@H]1C[C@@H]2[C@H]([C@@H](O)C[C@@]3(C)[C@H]2CC[C@]3(O)C(=O)COC(=O)CCC(=O)O)[C@@]2(C)C=CC(=O)C=C12", "inactive"],
  ["NC(=O)C[C@@H](N)C(=O)O", "inactive"],
  ["C[N@+]12CCCC[C@@H]1CCC(=C(c1cccs1)c1cccs1)C2", "active"],
  ["CC(=O)N(CC(C)C(=O)O)c1c(I)cc(I)c(N)c1I (stereo not given)", "inactive"],
  ["CCCCCCCCCCCCCCCC(=O)OCCC1CCN(CCCN2c3ccccc3Sc3ccc(S(=O)(=O)N(C)C)cc32)CC1", "inactive"],
  ["CO/N=C(\\C(=O)N[C@@H]1C(=O)N2C(C(=O)OCOC(=O)C(C)(C)C)=C(/C=C\\c3scnc3C)CS[C@H]12)c1csc(N)n1", "inactive"],
  ["COc1ccc(/C=C/C(=O)OCCC(C)C)cc1", "inactive"],
  ["CC(C)(C)c1ccc(CN2CCN(C(c3ccccc3)c3ccc(Cl)cc3)CC2)cc1 (stereo not given)", "active"],
  ["S=C1SCN(Cc2ccccc2)CN1Cc1ccccc1", "active"],
  ["CCOC(=O)COc1ccc2c(C)c(CCN(CC)CC)c(=O)oc2c1", "inactive"],
  ["CC(C)(C)C1(O)CCN2CC3c4ccccc4CCc4cccc(c43)C2C1 (stereo not given)", "active"],
  ["O=C(Nc1ccc(Br)cc1)c1cc(Br)c(Br)s1", "active"],
  ["CCCCCCOc1ccc(C(=N)N(CCCC)CCCC)c2ccccc12", "active"],
  ["C=CCNC1=C2C[C@@H](C)C[C@H](OC)[C@H](O)[C@@H](C)/C=C(\\C)[C@H](OC(N)=O)[C@@H](OC)/C=C\\C=C(/C)C(=O)NC(=CC1=O)C2=O", "active"],
  ["CC1(C)N=C(N)N=C(N)N1c1ccc(Cl)cc1", "active"],
  ["COc1ccc2cc([C@H](C)CO)ccc2c1", "inactive"],
  ["O=S(=O)(O)CCCS(=O)(=O)O", "inactive"],
  ["CCN(CC)CCCC(C)Nc1cc(/C=C/c2ccccc2Cl)nc2cc(Cl)ccc12 (stereo not given)", "active"],
  ["O=S(=O)(O)Oc1ccc(C(c2ccc(OS(=O)(=O)O)cc2)c2ccccn2)cc1", "inactive"],
  ["CCC(Cc1c(I)cc(I)c(O)c1I)C(=O)O (stereo not given)", "inactive"],
  ["CCCCCCCCCCCCCCCC(=O)OC[C@@H](COP(=O)([O-])OCC[N+](C)(C)C)OC(=O)CCCCCCCCCCCCCCC", "inactive"],
  ["CCCCC(C)(O)C/C=C/[C@H]1[C@H](O)CC(=O)[C@@H]1CCCCCCC(=O)OC (stereo not given in full)", "active"],
  ["CO[C@H]1C[C@@H]2CC[C@@H](C)[C@@](O)(O2)C(=O)C(=O)N2CCCC[C@H]2C(=O)O[C@H]([C@H](C)C[C@@H]2CC[C@@H](OC(=O)C(C)(CO)CO)[C@H](OC)C2)CC(=O)[C@H](C)/C=C(\\C)[C@@H](O)[C@@H](OC)C(=O)[C@H](C)C[C@H](C)/C=C/C=C/C=C/1C", "inactive"],
  ["C=C1C(=O)O[C@H]2[C@H]1CC/C(C)=C\\CC[C@@]1(C)O[C@@H]21", "active"],
  ["CCC(Oc1ccccc1)C(=O)N[C@@H]1C(=O)N2[C@@H]1SC(C)(C)[C@@H]2C(=O)O (stereo not given in full)", "inactive"],
  ["CCOC(=O)CN[C@@H](C(=O)N1CC[C@H]1C(=O)NCc1ccc(/C(N)=N/O)cc1)C1CCCCC1", "inactive"],
  ["C[C@H]1[C@@H](OC(=O)CCC(=O)O)O[C@@H]2OC3(C)CC[C@H]4[C@H](C)CC[C@@H]1[C@@]24OO3", "active"],
  ["O=P(O)(O)C(O)(Cc1cnc2ccccn12)P(=O)(O)O", "inactive"],
  ["CN(C)CCC=C1c2ccccc2C(C)(C)c2ccccc21", "active"],
  ["O=C1CCC(=O)N1CO", "inactive"],
  ["CC[C@H](CC[C@@H](C)[C@H]1CC[C@H]2[C@@H]3CC=C4C[C@@H](O)CC[C@]4(C)[C@H]3CC[C@]12C)C(C)C", "inactive"]
]}
